System: SMMC-7721
assay-explanation: Cytotoxicity against human SMMC7721 cells after 48 hrs by MTT assay
Format: functional, cell-based
measurement-setup: SMMC-7721, 48 h
pIC50: −log10 of the molar value.
metric-name: pIC50

| compound | result |
| --- | --- |
| Oc1ccc(N[C@H]2CC[C@]3(CC2)OO[C@]2(O3)C3CC4CC(C3)CC2C4)c2cccnc12 (mixture of isomers) | 5.14 |
| O=C(O)[C@H]1CC[C@]2(CC1)OO[C@]1(O2)C2CC3CC(C2)CC1C3 | < 4.00 |

Now let's try a different one.
Req: What measured pIC50 goes with Oc1ccc(NC2CCC3(CC2)OCC2(CO3)C3CC4CC(C3)CC2C4)c2cccnc12 (mixture of isomers) ?
Resp: 4.69

###

assay-explanation: Selectivity ratio of IC50 for human HL7702 cells to IC50 for human SMMC7721 cells
Type: ADME, cell-based, SMMC-7721
measurement-setup: HL7702 cells versus SMMC7721 cells, read-out: Ratio IC50
Assign labels as follows, please: Fulfilled for selectivity ratio below 3; Not fulfilled for selectivity ratio equal to or exceeding 3.

Field: example entries. Status: answers known.
| compound | answer-label |
| --- | --- |
| Oc1ccc(NC2CCC3(CC2)OOC2(OO3)C3CC4CC(C3)CC2C4)c2cccnc12 (mixture of isomers) | Not fulfilled |
| Oc1ccc(N[C@H]2CC[C@@]3(CC2)OC[C@]2(OO3)C3CC4CC(C3)CC2C4)c2cccnc12 (mixture of isomers) | Not fulfilled |
| Oc1ccc(NC2CCC3(CC2)OCC2(CO3)C3CC4CC(C3)CC2C4)c2cccnc12 (mixture of isomers) | Fulfilled |

Req: Regarding Oc1ccc(N[C@H]2CC[C@]3(CC2)OO[C@]2(O3)C3CC4CC(C3)CC2C4)c2cccnc12 (mixture of isomers) , kindly confirm whether its selectivity ratio is beneath 3.
Resp: Not fulfilled

Req: Regarding C[C@H]1[C@@H](O)O[C@@H]2O[C@@]3(C)CC[C@H]4[C@H](C)CC[C@@H]1[C@@]24OO3 , kindly confirm whether its selectivity ratio is beneath 3.
Resp: Fulfilled

Req: Regarding Oc1ccc(N[C@H]2CC[C@]3(CC2)OC[C@]2(O3)C3CC4CC(C3)CC2C4)c2cccnc12 (mixture of isomers) , kindly confirm whether its selectivity ratio is beneath 3.
Resp: Fulfilled

###

System: A549
assay-explanation: Cytotoxicity against human A549 cells after 48 hrs by MTT assay
Format: functional, cell-based
measurement-setup: A549, 48 h
pIC50: −log10 of the molar value.
metric-name: pIC50

| compound | metric-name | result |
| --- | --- | --- |
| Oc1ccc(NC2CCC3(CC2)OCC2(CO3)C3CC4CC(C3)CC2C4)c2cccnc12 (mixture of isomers) | pIC50 | 4.34 |
| O=C1CCC2(CC1)OOC1(O2)C2CC3CC(C2)CC1C3 (centres undefined) | pIC50 | < 4.00 |
| O=C(O)[C@H]1CC[C@]2(CC1)OO[C@]1(O2)C2CC3CC(C2)CC1C3 | pIC50 | < 4.00 |
| O=C(NC1CCC2(CC1)OCC1(CO2)C2CC3CC(C2)CC1C3)c1ccc(O)c(O)c1 (mixture of isomers) | pIC50 | < 4.30 |
| O=C(NO)C1CCC2(CC1)OOC1(OO2)C2CC3CC(C2)CC1C3 (centres undefined) | pIC50 | < 4.30 |

Now let's try a different one.
Req: What measured pIC50 goes with O=C1CCC2(CC1)OCC1(OO2)C2CC3CC(C2)CC1C3 (centres undefined) ?
Resp: < 4.00

###

Tested on: SMMC-7721
assay-explanation: Cytotoxicity against human SMMC7721 cells after 48 hrs by MTT assay
Format: functional, cell-based
measurement-setup: SMMC-7721, 48 h
Reported pIC50 values for a set of compounds
Note: pIC50 values are expressed as the negative base-10 logarithm of concentration in M.

| compound | metric-name | result-number |
| --- | --- | --- |
| Oc1ccc(N[C@H]2CC[C@@]3(CC2)OC[C@]2(OO3)C3CC4CC(C3)CC2C4)c2cccnc12 (mixture of isomers) | pIC50 | 4.96 |

Now let's try a different one.
Req: What measured pIC50 goes with Oc1ccc(NC2CCC3(CC2)OOC2(OO3)C3CC4CC(C3)CC2C4)c2cccnc12 (mixture of isomers) ?
Resp: 5.12

###

Reported IC50 values for a set of molecules
Test system: A549
assay-explanation: Cytotoxicity against human A549 cells after 48 hrs by MTT assay
Assay type: functional, cell-based
measurement-setup: A549, 48 h
Give the number; µM is assumed, so skip it.

| molecule | unit-of-measure | IC50 |
| --- | --- | --- |
| Oc1ccc(N[C@H]2CC[C@]3(CC2)OO[C@]2(O3)C3CC4CC(C3)CC2C4)c2cccnc12 (mixture of isomers) | µM | 15.9 |

Now let's try a different one.
Req: What measured IC50 goes with Oc1ccc(NC2CCC3(CC2)OOC2(OO3)C3CC4CC(C3)CC2C4)c2cccnc12 (mixture of isomers) ?
Resp: 11.8

###

System: SW480
assay-explanation: Cytotoxicity against human SW480 cells after 48 hrs by MTT assay
Format: functional, cell-based
measurement-setup: SW480, 48 h
pIC50: −log10 of the molar value.
metric-name: pIC50

Some compounds with recorded pIC50:
| compound | measured-on | result |
| --- | --- | --- |
| O=C1CCC2(CC1)OCC1(OO2)C2CC3CC(C2)CC1C3 (stereo not drawn) | SW480 | < 4.00 |
| O=C(NC1CCC2(CC1)OCC1(CO2)C2CC3CC(C2)CC1C3)c1ccc(O)c(O)c1 (mixture of isomers) | SW480 | < 4.30 |

Now let's try a different one.
Req: What measured pIC50 goes with O=C(N[C@H]1CC[C@]2(CC1)OO[C@]1(O2)C2CC3CC(C2)CC1C3)c1ccc(O)c(O)c1 (mixture of isomers) ?
Resp: < 4.30

###

System: SMMC-7721
assay-explanation: Cytotoxicity against human SMMC7721 cells after 48 hrs by MTT assay
Assay type: functional, cell-based
measurement-setup: SMMC-7721, 48 h
pIC50: −log10 of the molar value.
metric-name: pIC50

Some molecules with recorded pIC50:
| molecule | pIC50 |
| --- | --- |
| O=C(O)c1ccc(O)c(O)c1 [PROTOCATECHUIC ACID] | < 4.30 |
| O=C(N[C@H]1CC[C@@]2(CC1)OC[C@]1(OO2)C2CC3CC(C2)CC1C3)c1ccc(O)c(O)c1 (mixture of isomers) | < 4.30 |

Req: What measured pIC50 goes with O=C(N[C@H]1CC[C@]2(CC1)OO[C@]1(O2)C2CC3CC(C2)CC1C3)c1ccc(O)c(O)c1 (mixture of isomers) ?
Resp: < 4.30

Req: What measured pIC50 goes with O=C1CCC2(CC1)OOC1(O2)C2CC3CC(C2)CC1C3 (stereo unspecified) ?
Resp: < 4.00

Req: What measured pIC50 goes with O=C(N[C@H]1CC[C@]2(CC1)OC[C@]1(O2)C2CC3CC(C2)CC1C3)c1ccc(O)c(O)c1 (mixture of isomers) ?
Resp: < 4.30

Req: What measured pIC50 goes with O=C(NC1CCC2(CC1)OOC1(OO2)C2CC3CC(C2)CC1C3)c1ccc(O)c(O)c1 (stereo unspecified) ?
Resp: 4.47

###

Test system: A549
assay-explanation: Cytotoxicity against human A549 cells after 48 hrs by MTT assay
Assay type: functional, cell-based
measurement-setup: A549, 48 h
metric-name: IC50 (µM)
Give the number; µM is assumed, so skip it.

| compound | measured-on | IC50, µM |
| --- | --- | --- |
| Oc1ccc(N[C@H]2CC[C@@]3(CC2)OC[C@]2(OO3)C3CC4CC(C3)CC2C4)c2cccnc12 (mixture of isomers) | A549 | 23.9 |

Now let's try a different one.
Req: What measured IC50 goes with Oc1ccc(N[C@H]2CC[C@]3(CC2)OC[C@]2(O3)C3CC4CC(C3)CC2C4)c2cccnc12 (mixture of isomers) ?
Resp: 17.2

###

Test system: SW480
assay-explanation: Cytotoxicity against human SW480 cells after 48 hrs by MTT assay
Type: functional, cell-based
measurement-setup: SW480, 48 h
pIC50: −log10 of the molar value.
Reported pIC50 values for a set of compounds

| compound | pIC50 |
| --- | --- |
| O=C(N[C@H]1CC[C@@]2(CC1)OC[C@]1(OO2)C2CC3CC(C2)CC1C3)c1ccc(O)c(O)c1 (mixture of isomers) | < 4.30 |

Req: // lookup pIC50 | system=SW480 | key= O=C(O)c1ccc(O)c(O)c1 [PROTOCATECHUIC ACID]
Resp: < 4.30

Req: // lookup pIC50 | system=SW480 | key= O=C(O)C1CCC2(CC1)OOC1(OO2)C2CC3CC(C2)CC1C3 (stereo not given)
Resp: < 4.00

Req: // lookup pIC50 | system=SW480 | key= O=C1CCC2(CC1)OOC1(OO2)C2CC3CC(C2)CC1C3
Resp: < 4.00

Req: // lookup pIC50 | system=SW480 | key= Oc1ccc(NC2CCC3(CC2)OCC2(CO3)C3CC4CC(C3)CC2C4)c2cccnc12 (mixture of isomers)
Resp: < 4.30

Req: // lookup pIC50 | system=SW480 | key= O=C1CCC2(CC1)OOC1(O2)C2CC3CC(C2)CC1C3 (stereo not given)
Resp: < 4.00

Req: // lookup pIC50 | system=SW480 | key= C[C@H]1[C@@H](O)O[C@@H]2O[C@@]3(C)CC[C@H]4[C@H](C)CC[C@@H]1[C@@]24OO3 [ARTENIMOL]
Resp: < 4.00

Req: // lookup pIC50 | system=SW480 | key= Oc1ccc(N[C@H]2CC[C@]3(CC2)OC[C@]2(O3)C3CC4CC(C3)CC2C4)c2cccnc12 (mixture of isomers)
Resp: < 4.30

Req: // lookup pIC50 | system=SW480 | key= Oc1ccc(NC2CCC3(CC2)OOC2(OO3)C3CC4CC(C3)CC2C4)c2cccnc12 (mixture of isomers)
Resp: < 4.30
